- System: HT29
- method summary: NCI SRB growth inhibition (single dose 10 µM / five-dose)
- Format: cell-based, human
- experimental parameters: Homo sapiens, HT-29; HT29 (Colon cancer), 10 µM; read-out: GI%
For each of the compounds below, state its inhibition at 10 µM.
Numbers only, in %.

[[record]]
compound = "COc1cccc(C=NNC(=O)c2ccc3[nH]c(-c4ccccc4)nc3c2)c1O [8d]"
target_under_test = "HT29"
reported_endpoint = "inhibition at 10 µM"
recorded_measurement = 84.5

[[record]]
compound = "COc1ccc(-c2nc3cc(C(=O)NN=Cc4cc(OC)ccc4OC)ccc3[nH]2)cc1 [8m]"
target_under_test = "HT29"
reported_endpoint = "inhibition at 10 µM"
recorded_measurement = 25.4

[[record]]
compound = "COc1ccc(OC)c(C=NNC(=O)c2ccc3[nH]c(-c4ccccc4)nc3c2)c1 [8f]"
target_under_test = "HT29"
reported_endpoint = "inhibition at 10 µM"
recorded_measurement = 14.7

[[record]]
compound = "COc1cccc(C=NNC(=O)c2ccc3[nH]c(-c4ccccc4)nc3c2)c1 [8c]"
target_under_test = "HT29"
reported_endpoint = "inhibition at 10 µM"
recorded_measurement = 33.9


Now for the compound whose inhibition at 10 µM we want.
I would be grateful if you could share the reported inhibition at 10 µM for COc1cc(C=NNC(=O)c2ccc3[nH]c(-c4ccccc4)nc3c2)cc(OC)c1OC [8g] .
47.3

====

- Tested on: DU-145
- method summary: NCI SRB growth inhibition (single dose 10 µM / five-dose)
- Format: cell-based, human
- experimental parameters: Homo sapiens; DU-145 (Prostate cancer), 10 µM; read-out: GI%
Provide the reported inhibition at 10 µM of each item.
Answers are plain numbers, in %.

[[record]]
smiles_string = "COc1ccc(-c2nc3cc(C(=O)NN=Cc4cccc(O)c4)ccc3[nH]2)cc1"
recorded_measurement = 14


Looking for the measured inhibition at 10 µM of COc1ccc(C=NNC(=O)c2ccc3[nH]c(-c4ccc(Cl)cc4)nc3c2)cc1O , can you help?
16.2

====

- Test system: OVCAR-5
- method summary: NCI SRB growth inhibition (single dose 10 µM / five-dose)
- Assay type: cell-based, human
- experimental parameters: Homo sapiens; OVCAR-5 (Ovarian cancer), 10 µM; read-out: GI%
Record form. Attribute: inhibition at 10 µM. Fill in for each entry.

[[record]]
smiles_string = "COc1ccc(-c2nc3cc(C(=O)NN=Cc4cccc(OC)c4)ccc3[nH]2)cc1"
recorded_measurement = "91.2%"

[[record]]
smiles_string = "COc1ccc(C=NNC(=O)c2ccc3[nH]c(-c4ccc(Cl)cc4)nc3c2)cc1O"
recorded_measurement = "< 5%"

[[record]]
smiles_string = "O=C(NN=Cc1cccc(O)c1)c1ccc2[nH]c(-c3ccc(Cl)cc3)nc2c1"
recorded_measurement = "< 5%"


Using the record for COc1cccc(C=NNC(=O)c2ccc3[nH]c(-c4ccc(Cl)cc4)nc3c2)c1 , report its inhibition at 10 µM.
> 100%

====

- Test system: HCC-2998
- method summary: NCI SRB growth inhibition (single dose 10 µM / five-dose)
- Type: cell-based, human
- experimental parameters: Homo sapiens; HCC-2998 (Colon cancer), 10 µM; read-out: GI%
Exercise: state measured inhibition at 10 µM for each of the compounds provided.

[[record]]
smiles_string = "COc1cccc(C=NNC(=O)c2ccc3[nH]c(-c4ccccc4)nc3c2)c1"
target_under_test = "HCC-2998"
recorded_measurement = "< 5%"


Each compound below has a recorded value; state its inhibition at 10 µM.
1. COc1ccc(-c2nc3cc(C(=O)NN=Cc4cccc(OC)c4O)ccc3[nH]2)cc1
2. COc1cccc(C=NNC(=O)c2ccc3[nH]c(-c4ccc(Cl)cc4)nc3c2)c1O
3. COc1cc(C=NNC(=O)c2ccc3[nH]c(-c4ccc(Cl)cc4)nc3c2)cc(OC)c1OC

1. > 100%
2. > 100%
3. > 100%

Field: inhibition at 10 µM. Fill in for each record below.
1. COc1ccc(-c2nc3cc(C(=O)NN=Cc4cc(OC)ccc4OC)ccc3[nH]2)cc1
2. COc1ccc(C=NNC(=O)c2ccc3[nH]c(-c4ccccc4)nc3c2)cc1O

1. < 5%
2. < 5%

Please go through the list and note inhibition at 10 µM for each compound.
1. O=C(NN=Cc1cccc(O)c1)c1ccc2[nH]c(-c3ccccc3)nc2c1
2. COc1ccc(-c2nc3cc(C(=O)NN=Cc4cc(OC)c(OC)c(OC)c4)ccc3[nH]2)cc1

1. < 5%
2. < 5%

Source listed as paper PMC10893631.
